# target_of_assay: full-length human BTK (Homo sapiens)
# Construct: 2.5× stocks of full-length human BTK (08-080); purchased CarnaBio USA, Inc., Natick, Mass; 08-080
# measurement_description: Assay A: BTK IC50 Enzyme Assay (microfluidic off-chip mobility shift kinase assay)
# Format: biochemical
# condition_description: full-length human BTK, kinKDR peptide substrate, incubated 90 min at 27 C; read-out: Assay A (Time Dependent BTK Enzyme Assay IC50)
pIC50: −log10 of the molar value.
reported_endpoint: pIC50

[
  {
    "molecule": "N#CN1CCCC(Nc2ncc(C(N)=O)c(Oc3ccc(Oc4ccccc4)cc3)n2)C1 (stereo not shown) [Compound 239]",
    "measured_value": "5.30 to 6.00"
  },
  {
    "molecule": "C=CC(=O)N1CCC(c2ccc(C(N)=O)c(Oc3ccc(Oc4ccccc4)cc3)n2)C1 (stereo not shown) [Compound 70]",
    "measured_value": "> 7.00"
  },
  {
    "molecule": "C=CC(=O)N[C@H]1CCN(c2nc(Nc3ccc(N4CCC(F)(F)CC4)cc3)c(F)cc2C(N)=O)C1 [Compound 186, formic acid]",
    "measured_value": "6.00 to 7.00"
  },
  {
    "molecule": "C=CC(=O)N1CCC(Nc2ncc(C(N)=O)c(N)n2)C1 (stereo not shown) [Compound 141]",
    "measured_value": "6.00 to 7.00"
  }
]

====

Documented IC50 across a set of compounds
# target_of_assay: full-length human BTK (Homo sapiens, UniProt Q06187)
# Construct: 2.5× stocks of full-length human BTK (08-080); purchased CarnaBio USA, Inc., Natick, Mass; 08-080
# Sequence (Q06187 whole entry): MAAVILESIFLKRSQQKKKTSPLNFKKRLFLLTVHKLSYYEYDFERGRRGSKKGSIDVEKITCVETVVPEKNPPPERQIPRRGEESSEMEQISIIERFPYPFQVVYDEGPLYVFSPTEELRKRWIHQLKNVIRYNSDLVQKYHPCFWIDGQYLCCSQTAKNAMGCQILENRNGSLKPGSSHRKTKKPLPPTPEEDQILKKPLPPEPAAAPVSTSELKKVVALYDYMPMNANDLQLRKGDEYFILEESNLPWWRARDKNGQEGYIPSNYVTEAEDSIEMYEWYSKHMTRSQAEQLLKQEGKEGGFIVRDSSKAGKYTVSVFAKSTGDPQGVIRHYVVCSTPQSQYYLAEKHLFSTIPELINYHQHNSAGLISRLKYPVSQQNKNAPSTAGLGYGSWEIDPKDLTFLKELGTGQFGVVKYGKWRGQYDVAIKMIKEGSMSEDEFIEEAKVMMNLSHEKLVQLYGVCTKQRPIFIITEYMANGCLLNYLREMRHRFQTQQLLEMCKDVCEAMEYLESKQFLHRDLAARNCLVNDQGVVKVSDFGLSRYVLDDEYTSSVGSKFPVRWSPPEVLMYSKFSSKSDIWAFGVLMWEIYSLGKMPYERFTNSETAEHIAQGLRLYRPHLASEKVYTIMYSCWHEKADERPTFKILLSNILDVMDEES
# measurement_description: Assay A: BTK IC50 Enzyme Assay (microfluidic off-chip mobility shift kinase assay)
# Format: biochemical
# condition_description: full-length human BTK, kinKDR peptide substrate, incubated 90 min at 27 C; read-out: Assay A (Time Dependent BTK Enzyme Assay IC50)
reported_endpoint: IC50

[
  {
    "compound": "C=CC(=O)N1CCC[C@@H](c2cnc(Oc3ccc(Oc4ccccc4)cc3)c(C(N)=O)c2)C1",
    "reported_endpoint": "IC50",
    "measured_value": "< 0.1 µM"
  },
  {
    "compound": "C/C=C/C(=O)NC1CCCN(c2cnc(Oc3ccc(Oc4ccccc4)cc3)c(C(N)=O)c2)C1 (stereo not shown)",
    "reported_endpoint": "IC50",
    "measured_value": "> 5 µM"
  },
  {
    "compound": "C=CC(=O)N1C[C@@H]2C[C@H]1CN2c1ccc(C(N)=O)c(Oc2ccc(Oc3ccc(F)cc3F)cc2)n1",
    "reported_endpoint": "IC50",
    "measured_value": "< 0.1 µM"
  },
  {
    "compound": "C=CC(=O)N1CCC(c2cnc(C(N)=O)nc2)CC1",
    "reported_endpoint": "IC50",
    "measured_value": "> 5 µM"
  },
  {
    "compound": "C=CC(=O)N[C@H]1CCN(c2ncc(C#N)c(Nc3ccc(C(=O)NC(C)(C)C)cc3)n2)C1",
    "reported_endpoint": "IC50",
    "measured_value": "< 0.1 µM"
  },
  {
    "compound": "C/C=C/C(=O)NC1CCN(c2cnc(Oc3ccc(Oc4ccccc4)cc3)c(C(N)=O)c2)CC1",
    "reported_endpoint": "IC50",
    "measured_value": "> 5 µM"
  },
  {
    "compound": "C=CC(=O)N1CCCC(Nc2cnc(Oc3ccc(Oc4ccccc4)cc3)c(C(N)=O)c2)C1 (stereo not shown)",
    "reported_endpoint": "IC50",
    "measured_value": "0.1 to 1 µM"
  },
  {
    "compound": "C=CC(=O)N[C@H]1CCN(c2nc(Nc3ccc(F)c(C)c3)ccc2C(N)=O)C1",
    "reported_endpoint": "IC50",
    "measured_value": "< 0.1 µM"
  },
  {
    "compound": "C=CC(=O)N1CC=C(c2ccc(C(N)=O)c(Oc3ccc(Oc4ccccc4)cc3)n2)CC1",
    "reported_endpoint": "IC50",
    "measured_value": "< 0.1 µM"
  },
  {
    "compound": "C=CC(=O)N1CCC(c2ccc(C(N)=O)c(Nc3ccc(C(=O)N4CCN(C(=O)CCCCNC(=O)OC(C)(C)C)CC4)cc3)n2)CC1",
    "reported_endpoint": "IC50",
    "measured_value": "< 0.1 µM"
  },
  {
    "compound": "C/C=C/C(=O)N1CC2CN(c3cnc(Oc4ccc(Oc5ccccc5)cc4)c(C(N)=O)c3)CC2C1 (stereo not shown)",
    "reported_endpoint": "IC50",
    "measured_value": "> 5 µM"
  },
  {
    "compound": "C=CC(=O)N[C@@H]1CCCN(c2ccc(C(N)=O)c(Nc3ccc(CCN4CCCC4)cc3)n2)C1",
    "reported_endpoint": "IC50",
    "measured_value": "< 0.1 µM"
  },
  {
    "compound": "C/C=C/C(=O)NC1CCCN(c2cnc(Oc3ccc(Oc4cccc(F)c4)cc3)c(C(N)=O)c2)C1 (stereo not shown)",
    "reported_endpoint": "IC50",
    "measured_value": "> 5 µM"
  },
  {
    "compound": "C=CC(=O)N1CCC(c2ccc(C(N)=O)c(Nc3cccnc3)n2)CC1",
    "reported_endpoint": "IC50",
    "measured_value": "< 0.1 µM"
  },
  {
    "compound": "C=CC(=O)N[C@H]1CCN(c2ccc(C(N)=O)c(Oc3ccc(Oc4cccc(C#N)c4)cc3)n2)C1",
    "reported_endpoint": "IC50",
    "measured_value": "< 0.1 µM"
  },
  {
    "compound": "C=CC(=O)N[C@H]1CCN(c2ccc(C(N)=O)c(Nc3ccc(CCN4CCCC4)cc3)n2)C1",
    "reported_endpoint": "IC50",
    "measured_value": "< 0.1 µM"
  }
]

====

# target_of_assay: full-length human BTK (Homo sapiens, UniProt Q06187)
# Construct: 2.5× stocks of full-length human BTK (08-080); purchased CarnaBio USA, Inc., Natick, Mass; 08-080
# measurement_description: Assay A: BTK IC50 Enzyme Assay (microfluidic off-chip mobility shift kinase assay)
# Type: biochemical
# condition_description: full-length human BTK, kinKDR peptide substrate, incubated 90 min at 27 C; read-out: Assay A (Time Dependent BTK Enzyme Assay IC50)
pIC50: −log10 of the molar value.
Documented pIC50 across a set of molecules

[
  {
    "molecule": "C=CC(=O)N[C@H]1CCN(c2ccc(C(N)=O)c(NC3CCOCC3)n2)C1",
    "pIC50": "< 5.30"
  },
  {
    "molecule": "C=CC(=O)N[C@H]1CCN(c2nc(Cl)ccc2C(N)=O)C1",
    "pIC50": "< 5.30"
  },
  {
    "molecule": "C=CC(=O)N[C@H]1CCN(c2ccc(C(N)=O)c(Nc3ccc(N4C[C@@H](C)O[C@@H](C)C4)nc3)n2)C1",
    "pIC50": "> 7.00"
  },
  {
    "molecule": "C=CC(=O)N[C@H]1CCN(c2ccc(C(N)=O)c(Nc3ccc(N4CC(C)OC(C)C4)c(F)c3)n2)C1 (stereo partly shown)",
    "pIC50": "> 7.00"
  }
]

====

# target_of_assay: full-length human BTK (Homo sapiens)
# Construct: 2.5× stocks of full-length human BTK (08-080); purchased CarnaBio USA, Inc., Natick, Mass; 08-080
# measurement_description: Assay A: BTK IC50 Enzyme Assay (microfluidic off-chip mobility shift kinase assay)
# Type: biochemical
# condition_description: full-length human BTK, kinKDR peptide substrate, incubated 90 min at 27 C; read-out: Assay A (Time Dependent BTK Enzyme Assay IC50)
pIC50: −log10 of the molar value.
reported_endpoint: pIC50

[
  {
    "structure": "CN(C)C/C=C/C(=O)N[C@H]1CCN(c2ncc(C(N)=O)c(N)n2)C1",
    "measured_value": "5.30 to 6.00"
  },
  {
    "structure": "C=CC(=O)N[C@H]1CCN(c2cc(Oc3cnn(Cc4ccccc4)c3)c(C(N)=O)cn2)C1",
    "measured_value": "6.00 to 7.00"
  },
  {
    "structure": "C=CC(=O)N1CCn2ncc(-c3cnc(C(N)=O)nc3)c2C1",
    "measured_value": "< 5.30"
  },
  {
    "structure": "C=CC(=O)N(C)[C@H]1CCN(c2ccc(C(N)=O)c(Nc3ccc(CCN4CCCC4)cc3)n2)C1",
    "measured_value": "> 7.00"
  }
]

====

# target_of_assay: full-length human BTK (Homo sapiens, UniProt Q06187)
# Construct: 2.5× stocks of full-length human BTK (08-080); purchased CarnaBio USA, Inc., Natick, Mass; 08-080
# measurement_description: Assay A: BTK IC50 Enzyme Assay (microfluidic off-chip mobility shift kinase assay)
# Type: biochemical
# condition_description: full-length human BTK, kinKDR peptide substrate, incubated 90 min at 27 C; read-out: Assay A (Time Dependent BTK Enzyme Assay IC50)

[
  {
    "molecule": "C=CC(=O)N1CCC2(CC(Nc3ncc(C(N)=O)c(Oc4ccc(Oc5ccccc5)cc4)n3)C2)C1 (stereo not shown) [Compound 182]",
    "IC50": "1000 to 5000 nM"
  },
  {
    "molecule": "C=CC(=O)N[C@H]1CCN(c2ccc(C(N)=O)c(Nc3ccc(C(=O)N4CC(C)OC(C)C4)cc3)n2)C1 (stereo partly shown) [Compound 40]",
    "IC50": "< 100 nM"
  },
  {
    "molecule": "C=CC(=O)N[C@H]1CCN(c2nc(Nc3ccc(N4C[C@@H](C)O[C@@H](C)C4)nc3)c(C(N)=O)cc2F)C1 [Compound 6]",
    "IC50": "1000 to 5000 nM"
  },
  {
    "molecule": "C=CC(=O)N[C@H]1CCN(c2nc(Nc3ccc(N4CC(C)OC(C)C4)cc3)c(C(N)=O)cc2F)C1 (stereo partly shown) [Compound 188]",
    "IC50": "< 100 nM"
  },
  {
    "molecule": "C=CC(=O)N[C@@H]1CCN(c2ncc(C(N)=O)c(N)n2)C1 [Compound 144]",
    "IC50": "100 to 1000 nM"
  },
  {
    "molecule": "C=CC(=O)N1CCC(c2ccc(C(N)=O)c(Nc3ccc(OC4CCN(C)CC4)cc3)n2)CC1 [Compound 10]",
    "IC50": "< 100 nM"
  },
  {
    "molecule": "C=CC(=O)N1CCC(O)(c2ccc(C(N)=O)c(Oc3ccc(Oc4ccccc4)cc3)n2)C(O)C1 (stereo not shown) [Compound 77]",
    "IC50": "< 100 nM"
  }
]

The measured values listed here are drawn from patent US10329270B2.
